Details: in propylene carbonate, 293.15 K
result_type: solubility (mole fraction)

The compound listed as O=C1O[B-]2(OC1=O)OC(=O)C(=O)O2.[Li+] shows solubility (mole fraction) equal to 0.0393

* * *

Settings: in DMSO, 293.15 K
result_type: solubility (mole fraction)
Just the number, please, no unit attached.

# solubility (mole fraction) of O=C1O[B-]2(OC1=O)OC(=O)C(=O)O2.[Li+] = 0.148

* * *

Settings: in gamma-butyrolactone, 343.15 K
result_type: solubility (mole fraction)
When you answer, write just the number.

solubility (mole fraction) recorded for this compound, O=C1O[B-]2(OC1=O)OC(=O)C(=O)O2.[Li+] , is 0.0163
